assay.notes: Compound cytotoxicity, XTT-based colorimetric assay
Type: cell-based
cond: human; uninfected MT2 cells, day 4, XTT assay
readout: CC50 at 4 day

The measured CC50 at 4 day associated with Cn1nc(NS(C)(=O)=O)c2c(Cl)ccc(-n3c([C@H](Cc4cc(F)cc(F)c4)NC(=O)Cn4nc(C(F)F)c5c4C(F)(F)[C@@H]4C[C@H]54)nc4nc(OCCOC5CC5(F)F)ccc4c3=O)c21 (some centres unmarked) reads > 0.1 µM

Measured CC50 at 4 day of Cn1nc(NS(C)(=O)=O)c2c(Cl)ccc(-n3c([C@H](Cc4cc(F)cc(F)c4)NC(=O)Cn4nc(C(F)F)c5c4C(F)(F)[C@@H]4C[C@H]54)nc4nc(OCCOCC(F)(F)F)ccc4c3=O)c21 (atropisomer, axis not shown; (P)) : > 0.1 µM

Lab note: measured CC50 at 4 day of Cn1nc(NS(C)(=O)=O)c2c(Cl)ccc(-n3c([C@H](Cc4cc(F)cc(F)c4)NC(=O)Cn4nc(C(F)F)c5c4C(F)(F)[C@@H]4C[C@H]54)nc4nc(OCC(F)(F)C(F)F)ccc4c3=O)c21 (atropisomer, axis not shown; (P)) was > 0.1 µM

Value of CC50 at 4 day reported for the molecule Cn1nc(NS(C)(=O)=O)c2c(Cl)ccc(-n3c([C@H](Cc4cc(F)cc(F)c4)NC(=O)Cn4nc(C(F)F)c5c4C(F)(F)[C@@H]4C[C@H]54)nc4nc(OCC5CC(F)(F)C5)ccc4c3=O)c21 (atropisomer, axis not shown; (P)) is > 0.1 µM

Note to self: CC50 at 4 day recorded for Cc1cnc(COc2ccc3c(=O)n(-c4ccc(Cl)c5c(NS(C)(=O)=O)nn(C)c45)c([C@H](Cc4cc(F)cc(F)c4)NC(=O)Cn4nc(C(F)F)c5c4C(F)(F)[C@@H]4C[C@H]54)nc3n2)nc1 (atropisomer, axis not shown; (P)) was > 0.1 µM

Value of CC50 at 4 day reported for the molecule COC1(CCOc2ccc3c(=O)n(-c4ccc(Cl)c5c(NS(C)(=O)=O)nn(C)c45)c([C@H](Cc4cc(F)cc(F)c4)NC(=O)Cn4nc(C(F)F)c5c4C(F)(F)[C@@H]4C[C@H]54)nc3n2)CCC1 (atropisomer, axis not shown; (P)) is > 0.1 µM

The molecule Cn1nc(NS(C)(=O)=O)c2c(Cl)ccc(-n3c([C@H](Cc4cc(F)cc(F)c4)NC(=O)Cn4nc(C(F)F)c5c4C(F)(F)[C@@H]4C[C@H]54)nc4nc(OC5CC=CC5)ccc4c3=O)c21 (atropisomer, axis not shown; (P)) showed CC50 at 4 day equal to > 0.1 µM

The reported CC50 at 4 day of the molecule Cn1nc(NS(C)(=O)=O)c2c(Cl)ccc(-n3c([C@H](Cc4cc(F)cc(F)c4)NC(=O)Cn4nc(C(F)F)c5c4C(F)(F)[C@@H]4C[C@H]54)nc4nc(OCc5cccnc5)ccc4c3=O)c21 (atropisomer, axis not shown; (P)) was > 0.1 µM

* * *

Test system: recombinant NL4-3 virus
assay.notes: HIV cell culture assay (antiviral activity, luciferase readout in infected MT-2 cells)
Type: cell-based
cond: Human immunodeficiency virus 1, NL43, MT2
Source text: HIV cell culture assay—MT-2 cells, 293T cells and the proviral DNA clone of NL4-3 virus were obtained from the NIH AIDS Research and Reference Reagent Program. […] Luciferase was quantitated using the EnduRen Live Cell Substrate from Promega (Madison, WI). Antiviral activities of compounds toward the recombinant virus were quantified by measuring luciferase activity in MT-2 cells infected for 4-5 days with the recombinant virus in the presence of serial dilutions of the compound. […]
Please provide measured pEC50 for the entries that follow.
pEC50 here: minus log base 10 of the concentration, concentration in moles per litre.

Given item Cn1nc(NS(C)(=O)=O)c2c(Cl)ccc(-n3c([C@H](Cc4cc(F)cc(F)c4)NC(=O)Cn4nc(C(F)F)c5c4C(F)(F)[C@@H]4C[C@H]54)nc4nc(OC5CC=CC5)ccc4c3=O)c21 (atropisomer, axis not shown; (P)) [Example 1] , the value recorded as its pEC50 is 10.62

# pEC50 (compound: Cn1nc(NS(C)(=O)=O)c2c(Cl)ccc(-n3c([C@H](Cc4cc(F)cc(F)c4)NC(=O)Cn4nc(C(F)F)c5c4C(F)(F)[C@@H]4C[C@H]54)nc4nc(OCC(F)(F)C(F)(F)F)ccc4c3=O)c21 (atropisomer, axis not shown; (P)) [Example 18] ) is 10.51

Short answer for Cn1nc(NS(C)(=O)=O)c2c(Cl)ccc(-n3c([C@H](Cc4cc(F)cc(F)c4)NC(=O)Cn4nc(C(F)F)c5c4C(F)(F)[C@@H]4C[C@H]54)nc4nc(OCCC(F)(F)C(F)(F)F)ccc4c3=O)c21 (atropisomer, axis not shown; (P)) [Example 19] : pEC50 was 10.36

Quick note, pEC50 for Cn1nc(NS(C)(=O)=O)c2c(Cl)ccc(-n3c([C@H](Cc4cc(F)cc(F)c4)NC(=O)Cn4nc(C(F)F)c5c4C(F)(F)[C@@H]4C[C@H]54)nc4nc(OCCOCC(F)(F)F)ccc4c3=O)c21 (atropisomer, axis not shown; (P)) [Example 26] landed at 10.62

* * *

Could you please report measured EC50 for the items listed next?
Test system: recombinant NL4-3 virus
assay.notes: HIV cell culture assay (antiviral activity, luciferase readout in infected MT-2 cells)
Type: cell-based
cond: Human immunodeficiency virus 1, NL43, MT2

Lab note: measured EC50 of Cn1nc(NS(C)(=O)=O)c2c(Cl)ccc(-n3c([C@H](Cc4cc(F)cc(F)c4)NC(=O)Cn4nc(C(F)F)c5c4C(F)(F)[C@@H]4C[C@H]54)nc4nc(OCC5CC5(F)F)ccc4c3=O)c21 (stereo partly shown) was 0.037 nM

Lab note: measured EC50 of Cn1nc(NS(C)(=O)=O)c2c(Cl)ccc(-n3c([C@H](Cc4cc(F)cc(F)c4)NC(=O)Cn4nc(C(F)F)c5c4C(F)(F)[C@@H]4C[C@H]54)nc4nc(OCC5CC(F)(F)C5)ccc4c3=O)c21 (atropisomer, axis not shown; (P)) was 0.035 nM

According to the records, this molecule Cn1nccc1CCOc1ccc2c(=O)n(-c3ccc(Cl)c4c(NS(C)(=O)=O)nn(C)c34)c([C@H](Cc3cc(F)cc(F)c3)NC(=O)Cn3nc(C(F)F)c4c3C(F)(F)[C@@H]3C[C@H]43)nc2n1 (atropisomer, axis not shown; (P)) displays EC50 of 0.061 nM

The recorded EC50 for Cn1nc(NS(C)(=O)=O)c2c(Cl)ccc(-n3c([C@H](Cc4cc(F)cc(F)c4)NC(=O)Cn4nc(C(F)F)c5c4C(F)(F)[C@@H]4C[C@H]54)nc4nc(OCc5cccnc5)ccc4c3=O)c21 (atropisomer, axis not shown; (P)) is 0.048 nM

Documented EC50 of Cn1nc(NS(C)(=O)=O)c2c(Cl)ccc(-n3c([C@H](Cc4cc(F)cc(F)c4)NC(=O)Cn4nc(C(F)F)c5c4C(F)(F)[C@@H]4C[C@H]54)nc4nc(OCc5ccncc5)ccc4c3=O)c21 (atropisomer, axis not shown; (P)) : 0.06 nM

Form: molecule = CN(CCOc1ccc2c(=O)n(-c3ccc(Cl)c4c(NS(C)(=O)=O)nn(C)c34)c([C@H](Cc3cc(F)cc(F)c3)NC(=O)Cn3nc(C(F)F)c4c3C(F)(F)[C@@H]3C[C@H]43)nc2n1)CC(F)(F)F (atropisomer, axis not shown; (P)) ; EC50 = 0.018 nM

Note to self: EC50 recorded for Cn1nc(NS(C)(=O)=O)c2c(Cl)ccc(-n3c([C@H](Cc4cc(F)cc(F)c4)NC(=O)Cn4nc(C5CC5)c5c4C(F)(F)[C@@H]4C[C@H]54)nc4nc(OCC(F)(F)C(F)(F)F)ccc4c3=O)c21 (atropisomer, axis not shown; (P)) was 0.043 nM

* * *

Provide the recorded pEC50 for the entries that follow.
Tested on: recombinant NL4-3 virus
assay.notes: HIV cell culture assay (antiviral activity, luciferase readout in infected MT-2 cells)
Format: cell-based
cond: Human immunodeficiency virus 1, NL43, MT2
Description: HIV cell culture assay—MT-2 cells, 293T cells and the proviral DNA clone of NL4-3 virus were obtained from the NIH AIDS Research and Reference Reagent Program. […] Luciferase was quantitated using the EnduRen Live Cell Substrate from Promega (Madison, WI). Antiviral activities of compounds toward the recombinant virus were quantified by measuring luciferase activity in MT-2 cells infected for 4-5 days with the recombinant virus in the presence of serial dilutions of the compound. […]
Remember, pEC50 is on a log scale: it is -log10 of the molar concentration.

# compound Cn1nc(NS(C)(=O)=O)c2c(Cl)ccc(-n3c([C@H](Cc4cc(F)cc(F)c4)NC(=O)Cn4nc(C(F)F)c5c4C(F)(F)[C@@H]4C[C@H]54)nc4nc(OCCC(C)(C)C(F)(F)F)ccc4c3=O)c21 (atropisomer, axis not shown; (P)) ; its pEC50 = 10.11

Per the record, COCCCCCOc1ccc2c(=O)n(-c3ccc(Cl)c4c(NS(C)(=O)=O)nn(C)c34)c([C@H](Cc3cc(F)cc(F)c3)NC(=O)Cn3nc(C(F)F)c4c3C(F)(F)[C@@H]3C[C@H]43)nc2n1 (atropisomer, axis not shown; (P)) has pEC50 of 10.34
